List of Tmax values.
assay-protocol: Tmax in male C57BL/6 mouse at 10 mg/kg, po measured up to 24 hrs by LC-MS/MS analysis
Type: ADME, organism-based
particulars: in vivo
value-kind: Tmax (h)

| compound | val |
| --- | --- |
| Cn1c(=O)n(C2CCC(=O)NC2=O)c2cccc(C#CCO[C@H]3CC[C@H](CN4CCC5(CC4)Cc4cc(NC(=O)c6cnn7cc(F)cnc67)c(N6CCC(CO)CC6)cc4O5)CC3)c21 (stereo not given in full) | 4 |
| Cn1c(=O)n(C2CCC(=O)NC2=O)c2cccc(C#CCO[C@H]3CC[C@H](CN4CCC5(CC4)Cc4cc(NC(=O)c6cnc7cccnn67)c(N6CCC(CO)CC6)cc4O5)CC3)c21 (stereo not given in full) | 2 |
| Cn1c(=O)n(C2CCC(=O)NC2=O)c2cccc(C#CCO[C@H]3CC[C@H](CN4CCC5(CC4)Cc4cc(NC(=O)c6coc7cccnc67)c(N6CCC(CO)CC6)cc4O5)CC3)c21 (stereo not given in full) | 2.67 |
| Cn1c(=O)n(C2CCC(=O)NC2=O)c2cccc(C#CCO[C@H]3CC[C@H](CN4CCC5(CC4)Cc4cc(NC(=O)c6cnn7cccnc67)c(N6CCC(CO)CC6)cc4O5)CC3)c21 (stereo not given in full) | 2 |
| Cn1c(=O)n(C2CCC(=O)NC2=O)c2cccc(C#CCO[C@H]3CC[C@H](CN4CCC5(CC4)Cc4cc(NC(=O)c6cnn7cccnc67)c(N6CCC(O)CC6)cc4O5)CC3)c21 (stereo not given in full) | 4 |
